Measured relative viability by item
Tested on: SK-LU-1
Test: relative viability (nuclei count vs DMSO), 5 days (fraction); higher = more cells survive
Settings: first compound 2.53 µM
Give the figure only, with no unit attached.

Entry Oc1nc(-c2ccc(C(F)(F)F)cc2)nc2c1CSCC2 [XAV939] + CC(=O)Nc1cccc(-n2c(=O)n(C3CC3)c(=O)c3c(Nc4ccc(I)cc4F)n(C)c(=O)c(C)c32)c1 [Trametinib] (partner 0.02 µM) has what relative viability?
0.582

// next record Oc1nc(-c2ccc(C(F)(F)F)cc2)nc2c1CSCC2 [XAV939] + CS(=O)(=O)N1CCN(Cc2cc3nc(-c4cccc5[nH]ncc45)nc(N4CCOCC4)c3s2)CC1 [Pictilisib] (partner 1 µM)
0.565

Next molecule, relative viability to be filled in.
# relative viability lookup, item C=C1C(=O)O[C@@H](CCCCCCCC)[C@@H]1C(=O)O [C-75] + N=C(N)NC(=N)NCCc1ccccc1 [Phenformin] (partner 250 µM)
0.425

====

System: LU99A
Experiment: relative viability (nuclei count vs DMSO), 5 days (fraction); higher = more cells survive
Conditions: first compound 0.253 µM
Measured Property: relative viability
Answer using only a numeral; do not append any unit.

Recorded relative viability, per entry:
# query: relative viability of entry C=C1C(=O)O[C@@H](CCCCCCCC)[C@@H]1C(=O)O [C-75] + CS(=O)(=O)N1CCN(Cc2cc3nc(-c4cccc5[nH]ncc45)nc(N4CCOCC4)c3s2)CC1 [Pictilisib] (partner 1 µM)
0.306

One more compound: Oc1nc(-c2ccc(C(F)(F)F)cc2)nc2c1CSCC2 [XAV939] + Nc1nc2[nH]cc(CCc3ccc(C(=O)N[C@@H](CCC(=O)O)C(=O)O)cc3)c2c(=O)[nH]1 [Pemetrexed] (partner 0.2 µM)
0.167

Try this compound next: C=C1C(=O)O[C@@H](CCCCCCCC)[C@@H]1C(=O)O [C-75] + N=C(N)NC(=N)NCCc1ccccc1 [Phenformin] (partner 250 µM)
0.863

Same again, this time with C=C1C(=O)O[C@@H](CCCCCCCC)[C@@H]1C(=O)O [C-75] + NC(=O)Nc1cc(-c2cccc(F)c2)sc1C(=O)N[C@H]1CCCNC1 [AZD7762] (partner 0.2 µM)
0.529

***
Fill in the blank: the reported relative viability of Oc1nc(-c2ccc(C(F)(F)F)cc2)nc2c1CSCC2 [XAV939] + COc1cccc2cc(-c3nc([C@H]4CC[C@H](C(=O)O)CC4)n4ncnc(N)c34)[nH]c12 [OSI-027] (partner 0.5 µM) is ____.
0.348

Request: C=C1C(=O)O[C@@H](CCCCCCCC)[C@@H]1C(=O)O [C-75] + COc1cccc2cc(-c3nc([C@H]4CC[C@H](C(=O)O)CC4)n4ncnc(N)c34)[nH]c12 [OSI-027] (partner 0.5 µM)
0.28

And C=C1C(=O)O[C@@H](CCCCCCCC)[C@@H]1C(=O)O [C-75] + Cc1nc(NC(=O)N2CCC[C@H]2C(N)=O)sc1-c1ccnc(C(C)(C)C(F)(F)F)c1 [Alpelisib] (partner 2 µM) ?
0.547

====

This listing pairs molecules with measured relative viability.
Test system: HCC-78
Experiment: relative viability (nuclei count vs DMSO), 5 days (fraction); higher = more cells survive
Conditions: first compound 0.1265 µM
// return a plain number; no unit text

Recorded results for 3 molecules are shown here.
Item under review: O=C(O)c1ccc(-c2c[nH]c3ncc(-c4ccccc4)cc23)cc1C1CCCC1 + O=C(c1cc(Cc2n[nH]c(=O)c3ccccc23)ccc1F)N1CCN(C(=O)C2CC2)CC1 [Olaparib] (partner 8 µM) . Reported relative viability?
0.814

Ok, now O=C(O)c1ccc(-c2c[nH]c3ncc(-c4ccccc4)cc23)cc1C1CCCC1 + Cc1nc(NC(=O)N2CCC[C@H]2C(N)=O)sc1-c1ccnc(C(C)(C)C(F)(F)F)c1 [Alpelisib] (partner 2 µM)
0.361

And O=C(O)c1ccc(-c2c[nH]c3ncc(-c4ccccc4)cc23)cc1C1CCCC1 + Cc1nc(Nc2ncc(C(=O)Nc3c(C)cccc3Cl)s2)cc(N2CCN(CCO)CC2)n1 [Dasatinib] (partner 0.075 µM) ?
0.516

We next turn to a different molecule, shown below.
Name the reported relative viability value associated with the molecule O=C(O)c1ccc(-c2c[nH]c3ncc(-c4ccccc4)cc23)cc1C1CCCC1 + COc1cccc2cc(-c3nc([C@H]4CC[C@H](C(=O)O)CC4)n4ncnc(N)c34)[nH]c12 [OSI-027] (partner 0.5 µM)
0.396
